- Study target: Olfr740 (Mus musculus)
- Sequence (E9PV79 entry or part of it): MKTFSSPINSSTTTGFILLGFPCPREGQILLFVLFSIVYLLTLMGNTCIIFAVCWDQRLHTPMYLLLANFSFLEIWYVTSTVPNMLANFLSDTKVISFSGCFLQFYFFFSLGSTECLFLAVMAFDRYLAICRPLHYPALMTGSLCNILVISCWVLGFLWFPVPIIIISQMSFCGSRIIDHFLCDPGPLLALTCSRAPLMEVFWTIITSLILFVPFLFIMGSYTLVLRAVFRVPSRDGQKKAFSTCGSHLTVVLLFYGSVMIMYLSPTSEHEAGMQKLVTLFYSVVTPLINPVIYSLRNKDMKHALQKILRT
- Procedure text: Indole antagonist dose-response, cAMP HTRF in HEK293T, vs indole EC80
- Format: cell-based
- Test settings: HEK-293T, Table 22, first listing; vs indole EC80; read-out: Olfr740 % Inhibition
Provide the reported Emax of each item.
Kindly answer with a numeric value in %, unit omitted.

Lab book: Emax of CC(CC=O)CCc1ccccc1 (stereo not drawn) [3-methyl-5-phenylpentanal] noted as 110

Lab book: Emax of "c1nc2c(o1)CCCCCCCCCC2" noted as 102

Lab book: Emax of CC1CC(C)(c2ccccc2)CO1 (stereo not drawn) [2,4-dimethyl-4-phenyloxolane] noted as 100
